Test: Tigecycline plasma PK and % F after PO enteric-coated capsule in dogs
Format: in vivo, Beagle dogs
Details: female, beagle, dog, plasma, po, 15 mg, PO 15 mg unformulated enteric-coated capsule ([…]), SC424; mean; read-out: % F
measured.attribute: bioavailability (%)
Kindly provide the numeric value in % only, without the unit symbol.

Quick one: give measured bioavailability for CN(C)c1cc(NC(=O)CNC(C)(C)C)c(O)c2c1C[C@H]1C[C@H]3[C@H](N(C)C)C(O)=C(C(N)=O)C(=O)[C@@]3(O)C(O)=C1C2=O [Tigecycline] 0

----------
Experiment: Tigecycline plasma PK and % F after PO enteric-coated capsule in dogs
Type: in vivo, Beagle dogs
Settings: female, beagle, dog, plasma, po, 15 mg, 15 mg Formulated (500 mg CA, 100 mg LLC) enteric coated capsule, Study 1 (SC424); mean (% CV); read-out: % F
measured.attribute: bioavailability (%)
Kindly provide the numeric value in % only, without the unit symbol.

Quick one: give measured bioavailability for CN(C)c1cc(NC(=O)CNC(C)(C)C)c(O)c2c1C[C@H]1C[C@H]3[C@H](N(C)C)C(O)=C(C(N)=O)C(=O)[C@@]3(O)C(O)=C1C2=O 12.2

----------
Experiment: Tigecycline plasma PK and % F after intraduodenal (ID) injection in anesthetized rats
Type: in vivo, Sprague-Dawley Rats
Conditions: female, Sprague-Dawley, rat, plasma, 9 mg/kg, pH 3.5, ID, 400 mM CA (pH 3.5), 26 mM LLC, 9.0 mg/kg (RA853), parent Tigecycline peak only
measured.attribute: AUC(0-t) (ng·h/mL)
Kindly provide the numeric value in ng·h/mL only, without the unit symbol.

Quick one: give measured AUC(0-t) for CN(C)c1cc(NC(=O)CNC(C)(C)C)c(O)c2c1C[C@H]1C[C@H]3[C@H](N(C)C)C(O)=C(C(N)=O)C(=O)[C@@]3(O)C(O)=C1C2=O 2300

----------
Experiment: Kanamycin and tobramycin plasma PK after IV bolus in dogs
Format: in vivo, Beagle dogs
Settings: female, Beagle, dog, plasma, iv, 0.1 mg, single IV bolus 0.10 mg; 5 min
Protocol: Adult Beagle dogs weighing approximately 10 to 15 kg were used in the study. The animals were housed at Sinclair Research Center, Columbia, Mo. either individually or in pairs in over-sized dog runs. […] A 12-hour light/12-hour dark photoperiod was maintained. Room temperature was set to be maintained at 20±5° C. Relative humidity was monitored but not controlled. Animal room and pen cleaning were performed according to the testing facility (Sinclair) SOPs. […]
measured.attribute: concentration at 5 min (µg/mL)
Kindly provide the numeric value in µg/mL only, without the unit symbol.

Quick one: give measured concentration at 5 min for NC[C@H]1O[C@H](O[C@H]2[C@H](O)[C@@H](O[C@H]3O[C@H](CO)[C@@H](O)[C@H](N)[C@H]3O)[C@H](N)C[C@@H]2N)[C@H](O)[C@@H](O)[C@@H]1O [Kanamycin] 0.0408

----------
Assay: Tigecycline plasma PK and % F after intraduodenal (ID) injection in anesthetized rats
Format: in vivo, Sprague-Dawley Rats
Conditions: female, Sprague-Dawley, rat, plasma, 4.8 mg/kg, pH 6, RA867, ID, 400 mM CA/26 mM LLC pH 6.0, 4.8 mg/kg; read-out: Cmax, mean
measured.attribute: Cmax

Quick one: give measured Cmax for CN(C)c1cc(NC(=O)CNC(C)(C)C)c(O)c2c1C[C@H]1C[C@H]3[C@H](N(C)C)C(O)=C(C(N)=O)C(=O)[C@@]3(O)C(O)=C1C2=O 278 ng/mL
